test system: SARS-CoV-2; assay: Antiviral plaque assay in Vero-E6 cells; assay type: cell-based; conditions: Severe acute respiratory syndrome coronavirus 2, Vero C1008, read-out: EC50 (95% CI)
Assign pEC50 to each entry below.
Lab note — pEC50 values are minus log10 of concentrations in M.

Looking for the measured pEC50 of CN[C@@H]1[C@@H](O)[C@@H](O[C@@H]2[C@@H](O)[C@H](O[C@H]3O[C@H]([C@@H](C)O)[C@@H](O)[C@H](O)[C@H]3N)[C@@H](N)C[C@H]2N)OC[C@]1(C)O [Geneticin] , can you help?
4.33

Same thing, different molecule: CCNCC1CCN(c2c(F)cc3c(=O)c(C(=O)O)cn(CC)c3c2F)C1 (centres unmarked) [Merafloxacin]
4.63

---

assay: in vitro; conditions: human
measure_name: CC50 (µM)
Give your result in µM as a bare value.

Looking for the measured CC50 of CN[C@@H]1[C@@H](O)[C@@H](O[C@@H]2[C@@H](O)[C@H](O[C@H]3O[C@H]([C@@H](C)O)[C@@H](O)[C@H](O)[C@H]3N)[C@@H](N)C[C@H]2N)OC[C@]1(C)O , can you help?
684

---

test: in vitro; conditions: dog
measure_name: CC50

Looking for the measured CC50 of CN[C@@H]1[C@@H](O)[C@@H](O[C@@H]2[C@@H](O)[C@H](O[C@H]3O[C@H]([C@@H](C)O)[C@@H](O)[C@H](O)[C@H]3N)[C@@H](N)C[C@H]2N)OC[C@]1(C)O , can you help?
5.84 mM

---

system: B.1.1.7 SARS-CoV-2; assay: Antiviral assay in Calu3 cells; type: cell-based; conditions: Severe acute respiratory syndrome coronavirus 2, Calu-3, read-out: EC50 (95% CI)
measure_name: EC50 (µM)
Give your result in µM as a bare value.

Looking for the measured EC50 of CCNCC1CCN(c2c(F)cc3c(=O)c(C(=O)O)cn(CC)c3c2F)C1 (centres unmarked) , can you help?
21.8

Same thing, different compound: CN[C@@H]1[C@@H](O)[C@@H](O[C@@H]2[C@@H](O)[C@H](O[C@H]3O[C@H]([C@@H](C)O)[C@@H](O)[C@H](O)[C@H]3N)[C@@H](N)C[C@H]2N)OC[C@]1(C)O
164

---

assay: in vitro; details: African green monkey, CC50, row of SARS-CoV-2 B.1.1.7 (Alpha)
measure_name: CC50 (mM)
Give your result in mM as a bare value.

Looking for the measured CC50 of CN[C@@H]1[C@@H](O)[C@@H](O[C@@H]2[C@@H](O)[C@H](O[C@H]3O[C@H]([C@@H](C)O)[C@@H](O)[C@H](O)[C@H]3N)[C@@H](N)C[C@H]2N)OC[C@]1(C)O , can you help?
3.95

These measurements were taken from paper PMC9617636.
